Data provenance is the supplement of paper PMC10567573.

B1: MMP1 (parent)
chain: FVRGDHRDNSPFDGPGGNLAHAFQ

variants of: B1; experiment: protein stability index of a GFP-peptide fusion (GPS, HEK-293T) (PSI 1-6); higher = more stable; conditions: c terminus: a fixed tail appended;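 note: lentivirally expressed fusions sorted by FACS into six bins by GFP to DsRed ratio, PSI derived from sequencing read proportions per bin multiplied by bin number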
measurement_name: protein stability index

In [3]: df
Out[3]:
            sequence_content  observed_value
 0  FVRGDHRDNSPFDGPGGNLAHTFQ            2.31
 1  FVRGDHRDNSHFDGPGGNLAHAFQ             1.5
 2  FVQGDHRDNSPFDGPGGNLAHAFQ            1.71
 3  FVRGDHRDMSPFDGPGGNLAHAFQ            2.27
 4  FVRGDHRDNSPFDCPGGNLAHAFQ            2.99
 5  FVRGDHRDNSVFDGPGGNLAHAFQ            2.06
 6  FVRGDHRDNSPFDDPGGNLAHAFQ            2.25
 7  FVRGEHRDNSPFDGPGGNLAHAFQ             1.5
 8  FVRGDHRDNSPFDGWGGNLAHAFQ            1.87
 9  FVRGDHRDNSPFDGPGGNLAHAPQ            2.63
10  FVRGDHRDNSPFDGPRGNLAHAFQ            2.45
